Value source: the supplement of paper PMC4862054

test system: Hs578T; assay: drug sensitivity score (DSS), CellTiter-Glo (DSS (AUC-based score)); higher = stronger drug effect (viability inhibition or cytotoxicity); extreme values may be limits of the assay; conditions: incubation time: 72 h
Classification field: rule met = drug sensitivity score at or over 0.4; rule not met = drug sensitivity score under 0.4.

molecule: CN(C)C(=N)NC(=N)N [Metformin]
assignedLabel: rule not met

molecule: Nc1ccn([C@@H]2O[C@H](CO)[C@@H](O)C2(F)F)c(=O)n1 [Gemcitabine]
assignedLabel: rule met

molecule: COc1cc(Nc2c(C#N)cnc3cc(OCCCN4CCN(C)CC4)c(OC)cc23)c(Cl)cc1Cl [Bosutinib]
assignedLabel: rule met

molecule: CO[C@@]12[C@H](COC(N)=O)C3=C(C(=O)C(C)=C(N)C3=O)N1C[C@@H]1N[C@@H]12 [Mitomycin C]
assignedLabel: rule not met

molecule: Cc1nc(C(=O)NCC(=O)O)c(O)c2ccc(Oc3ccccc3)cc12 [FG-4592]
assignedLabel: rule not met

molecule: CC(=O)[C@]1(O)Cc2c(O)c3c(c(O)c2[C@@H](O[C@H]2C[C@H](N)[C@H](O)[C@H](C)O2)C1)C(=O)c1ccccc1C3=O [Idarubicin]
assignedLabel: rule met
